Reference for the values: patent US9751886B2

Test system: Abeta total secreted by human neuroblastoma SKNBE2 cells expressing wild type hAPP695
method_notes: BACE1 cellular αLisa assay in SKNBE2 cells, Abeta total
Format: cell-based
measurement_setup: Homo sapiens, 18 hours incubation, read-out: Cellular αLisa assay in SKNBE2 cells Abetatotal pIC50 (converted)
assay_metric: IC50 (nM)

Recorded results for 4 compounds are shown here.
compound | assay_metric | value_observed
NC1=N[C@](CF)(c2cc(NC(=O)c3ccc(F)cn3)ccc2F)Cn2nncc21 | IC50 | 24.5
NC1=N[C@@](CF)(c2cc(NC(=O)c3ccc(F)cn3)ccc2F)Cn2nncc21 | IC50 | 4470
COc1cnc(C(=O)Nc2ccc(F)c([C@]3(C)Cn4nncc4C(N)=N3)c2)cn1 | IC50 | 1.62
C[C@@]1(c2cc(NC(=O)c3nn(C(F)F)cc3Cl)ccc2F)Cn2nncc2C(N)=N1 | IC50 | 3.09

1: C[C@@]1(c2cc(NC(=O)c3ccc(F)cn3)cc(F)c2F)Cn2nncc2C(N)=N1
2: C[C@@]1(c2cc(NC(=O)c3ccc(C#N)cn3)ccc2F)Cn2nncc2C(N)=N1
Which numeric IC50 is bigger, that of 1 or that of 2 ? Respond with the label that goes with your answer.
1

1: C[C@@]1(c2cc(NC(=O)c3ccc(F)cn3)ccc2F)Cn2nncc2C(N)=N1
2: NC1=NC(CF)(c2cc(NC(=O)c3ccc(F)cn3)ccc2F)Cn2nncc21 (racemic)
Form: Entry with minimum IC50 (choose one): 1 / 2 Reply briefly: the label of your chosen item.
1

* * *

test_system: recombinant BACE1 protein (Homo sapiens (Human), UniProt P56817)
Sequence (P56817 46-501): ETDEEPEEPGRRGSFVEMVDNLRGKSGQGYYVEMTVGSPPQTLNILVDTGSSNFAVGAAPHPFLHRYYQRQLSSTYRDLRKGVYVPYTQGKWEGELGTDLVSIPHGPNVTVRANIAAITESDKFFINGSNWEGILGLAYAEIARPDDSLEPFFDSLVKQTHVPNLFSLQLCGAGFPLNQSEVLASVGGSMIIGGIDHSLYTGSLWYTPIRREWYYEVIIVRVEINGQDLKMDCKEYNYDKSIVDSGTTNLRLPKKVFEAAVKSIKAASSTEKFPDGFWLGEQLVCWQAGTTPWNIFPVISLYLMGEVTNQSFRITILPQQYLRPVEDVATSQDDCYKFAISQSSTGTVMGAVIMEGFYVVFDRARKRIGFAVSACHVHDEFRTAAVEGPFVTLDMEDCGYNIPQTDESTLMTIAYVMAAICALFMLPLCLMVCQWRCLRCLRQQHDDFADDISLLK
method_notes: BACE1 Biochemical FRET based assay - Method 2
measurement_setup: 0.04 μg/ml BACE1, 20 μM substrate, 450 min, pH 5.0
assay_metric: BACE1 Biochemical FRET based assay - Method 2 pIC50

line_notation | value_observed
C[C@@]1(c2cc(NC(=O)c3ccc(F)cn3)cc(F)c2F)Cn2nncc2C(N)=N1 | 8.36
NC1=N[C@@](CF)(c2cc(NC(=O)c3ccc(F)cn3)ccc2F)Cn2nncc21 | 6.12
C[C@@]1(c2cc(NC(=O)c3cnc(OCC(F)(F)F)cn3)ccc2F)Cn2nncc2C(N)=N1 | 8.51
C[C@@]1(c2cc(NC(=O)c3nn(C(F)F)cc3Cl)ccc2F)Cn2nncc2C(N)=N1 | 8.72
NC1=N[C@](CF)(c2cc(NC(=O)c3ccc(F)cn3)ccc2F)Cn2nncc21 | 8.39
C[C@@]1(c2cc(NC(=O)c3cnc(OCF)cn3)ccc2F)Cn2nncc2C(N)=N1 | 8.52
COc1cnc(C(=O)Nc2ccc(F)c([C@]3(C)Cn4nncc4C(N)=N3)c2)cn1 | 8.69
C[C@@]1(c2cc(NC(=O)c3ccc(Cl)cn3)ccc2F)Cn2nncc2C(N)=N1 | 8.75
C[C@@]1(c2cc(NC(=O)c3ccc(F)cn3)ccc2F)Cn2nncc2C(N)=N1 | 8.37

* * *

test_system: recombinant BACE2 protein (Homo sapiens (Human), UniProt Q9Y5Z0)
Sequence (Q9Y5Z0 63-518): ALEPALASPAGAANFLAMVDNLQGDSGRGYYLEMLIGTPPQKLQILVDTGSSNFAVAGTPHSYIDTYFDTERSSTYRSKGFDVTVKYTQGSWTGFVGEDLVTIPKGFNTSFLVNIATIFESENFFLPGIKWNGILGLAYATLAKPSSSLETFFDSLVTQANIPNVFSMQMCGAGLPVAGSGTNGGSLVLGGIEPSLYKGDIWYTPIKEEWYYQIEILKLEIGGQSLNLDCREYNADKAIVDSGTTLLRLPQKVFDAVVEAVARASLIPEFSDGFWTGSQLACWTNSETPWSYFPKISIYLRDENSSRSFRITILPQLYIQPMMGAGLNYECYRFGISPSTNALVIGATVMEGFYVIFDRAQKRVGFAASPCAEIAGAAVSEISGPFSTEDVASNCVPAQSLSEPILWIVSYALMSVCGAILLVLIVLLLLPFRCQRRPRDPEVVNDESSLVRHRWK
method_notes: BACE2 Biochemical FRET based assay
measurement_setup: 0.4 μg/ml BACE2, 10 μM substrate, 450 min, pH 5.0
assay_metric: BACE2 Biochemical FRET based assay pIC50

compound | value_observed
NC1=N[C@@](CF)(c2cc(NC(=O)c3ccc(F)cn3)ccc2F)Cn2nncc21 [Compound 11] | 6.3
COc1cnc(C(=O)Nc2ccc(F)c([C@]3(C)Cn4nncc4C(N)=N3)c2)cn1 [Compound 3] | 7.81
C[C@@]1(c2cc(NC(=O)c3ccc(F)cn3)ccc2F)Cn2nncc2C(N)=N1 [Compound 1] | 8.48
C[C@@]1(c2cc(NC(=O)c3cnc(OCF)cn3)ccc2F)Cn2nncc2C(N)=N1 [Compound 7] | 7.78
